Test system: platelet-rich plasma (PRP)
experiment: Platelet aggregation in platelet-rich plasma (aggregometer, light transmittance)
Format: cell-based
condition_notes: Homo sapiens, Platelet, 10 min, aggregation induced by arachidonic acid (threshold concentration), 10 min incubation

smiles: COc1ccc(C(=O)N[C@H]2CC[C@H](O[N+](=O)[O-])CC2)cc1C(=O)NCc1cccnc1
system_tested: platelet-rich plasma (PRP)
IC50 (µM): 12

----------
System: thromboxane synthesis
experiment: Thromboxane synthesis in clotting blood (serum TxB2 by radioimmunoassay)
Assay type: cell-based
condition_notes: 1 h, human blood clotted 60 min at 37°C, read-out: IC50 (inhibit thromboxane synthesis)
pIC50: −log10 of the molar value.

smiles: COc1ccc(C(=O)N[C@H]2CC[C@H](O[N+](=O)[O-])CC2)cc1C(=O)NCc1cccnc1
pIC50: 4.74
